assay_overview: Restrictive medium S. cerevisiae growth inhibition, OD615, pilot screen of yeast lifespan reduction project, restrictive growth control (AID 706);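 also: modified DeaD lifespan yeast strain shifted to restrictive glucose medium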
recorded_conditions: OD615, 48 h, at 10 µM, hits give high values

{"compound": "COc1ccc(S(=O)(=O)Nc2ccc(S(=O)(=O)N3CCOCC3)cc2)cc1", "growth inhibition (%)": -1.83}
{"compound": "O=C(Nc1cccnc1)c1ccccc1F", "growth inhibition (%)": 4.54}
{"compound": "CCOC(=O)CCc1n[nH]c(=O)[nH]c1=O", "growth inhibition (%)": 5.9}
{"compound": "CC1CCN(C(=O)CSc2nnc(Cc3cccn3C)n2-c2ccc(F)cc2)CC1", "growth inhibition (%)": 10.6}
{"compound": "CC1(C)C(c2ccccc2)=[N+]([O-])CN1O", "growth inhibition (%)": 9.78}
{"compound": "CCOc1cc(C2C(C(=O)c3ccco3)=C(O)C(=O)N2CCc2ccccc2)ccc1O (configuration not stated)", "growth inhibition (%)": -4.2}
{"compound": "Cc1cccn2cc(CCNC(=O)c3ccc(Br)o3)nc12", "growth inhibition (%)": -5.67}
{"compound": "CC(C)(C)c1ccc(OCC(=O)N2CCN(C=O)CC2)cc1", "growth inhibition (%)": -10.2}
{"compound": "Cn1c(NC(=O)c2ccccc2)cc(=O)n(C)c1=O", "growth inhibition (%)": -9.99}
{"compound": "COc1ccc(C(=O)/C=C/N2CCCCC2)cc1OC", "growth inhibition (%)": 74.3}
{"compound": "Cc1nc(S(=O)(=O)c2ccc(Cl)cc2)c(NCc2ccccc2)o1", "growth inhibition (%)": -2.45}
{"compound": "Cc1c(NC(=O)Oc2ccccc2)sc(=S)n1C", "growth inhibition (%)": 34.4}
